Value source: ChEMBL document CHEMBL1143689

# target-under-test: Free fatty acid receptor 1 (Mus musculus) (UniProt Q76JU9)
# Sequence (Q76JU9 whole entry): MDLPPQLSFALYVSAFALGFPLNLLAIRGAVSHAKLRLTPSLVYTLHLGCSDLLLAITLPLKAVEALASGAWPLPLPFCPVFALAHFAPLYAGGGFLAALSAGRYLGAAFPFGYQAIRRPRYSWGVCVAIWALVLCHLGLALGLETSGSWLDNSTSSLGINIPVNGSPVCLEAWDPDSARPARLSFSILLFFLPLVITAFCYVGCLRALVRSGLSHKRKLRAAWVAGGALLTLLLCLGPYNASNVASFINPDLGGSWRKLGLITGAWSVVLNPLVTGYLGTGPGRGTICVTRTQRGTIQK
# test-protocol: Agonist activity at GPR40 in mouse MIN6 cells assessed as stimulation of 25 mM glucose-mediated insulin secretion at 30 uM
# Assay type: functional, cell-based
measured-quantity: Activity (%)

[
  {
    "molecule": "CCCCCOc1ccc(C(CC(=O)O)c2ccccc2)cc1 (stereo not given)",
    "units-of-measure": "%",
    "Activity": 122
  },
  {
    "molecule": "CCCCOc1ccc(C(CC(=O)O)c2cccs2)cc1 (stereo not given)",
    "units-of-measure": "%",
    "Activity": 171
  },
  {
    "molecule": "CCCCCCOc1ccc(C(CC(=O)O)c2ccccc2)cc1 (stereo not given)",
    "units-of-measure": "%",
    "Activity": 137
  },
  {
    "molecule": "CCCCC/C=C\\C/C=C\\CCCCCCCC(=O)O",
    "units-of-measure": "%",
    "Activity": 172
  },
  {
    "molecule": "CCC(CC)COc1ccc(C(CC(=O)O)c2ccccc2)cc1 (stereo not given)",
    "units-of-measure": "%",
    "Activity": 155
  }
]

* * *

# target-under-test: Free fatty acid receptor 1 (Mus musculus, UniProt Q76JU9)
# test-protocol: Agonist activity at GPR40 in mouse MIN6 cells assessed as stimulation of 25 mM glucose-mediated insulin secretion
measured-quantity: EC50 (nM)
A number alone suffices; assume nM.

input: // EC50 lookup, key: CCC(CC)COc1ccc(C(CC(=O)O)c2ccccc2)cc1 (stereo unspecified)
output: 2200

* * *

# target-under-test: Free fatty acid receptor 1 (Homo sapiens)
# test-protocol: Agonist activity at human GPR40 expressed in HEK293 cells assessed as effect on calcium flux
# Assay type: functional, cell-based
measured-quantity: ED50 (nM)

Record excerpt, results attached:
[
  {
    "compound": "O=C(O)CC(c1ccccc1)c1ccc(OCCCC(F)(F)F)cc1 (stereo unspecified)",
    "ED50, nM": 3160
  },
  {
    "compound": "CCCCOc1ccc(C(CC(=O)O)c2cccc(C(F)(F)F)c2)cc1 (stereo unspecified)",
    "ED50, nM": 2840
  },
  {
    "compound": "CC(C)CCOc1ccc(C(CC(=O)O)c2ccccc2)cc1 (stereo unspecified)",
    "ED50, nM": 1860
  },
  {
    "compound": "CC[C@H](C)COc1ccc(C(CC(=O)O)c2ccccc2)cc1 (stereo in doubt; 22(B,S))",
    "ED50, nM": 560
  },
  {
    "compound": "CCC(CC)COc1ccc(C(CC(=O)O)c2ccccc2)cc1 (stereo unspecified)",
    "ED50, nM": 640
  },
  {
    "compound": "CCCCCOc1ccc(C(CC(=O)O)c2ccccc2)cc1 (stereo unspecified)",
    "ED50, nM": 2970
  }
]

I = C/C=C/COc1ccc(C(CC(=O)O)c2ccccc2)cc1 (stereo unspecified)
II = CCCOc1ccc(C(CC(=O)O)c2ccccc2)cc1 (stereo unspecified)
III = CCCCOc1ccc(C(CC(=O)O)c2cccc(F)c2)cc1 (stereo unspecified)
input: Order each entry by recorded ED50, climbing from the minimum. // ordering of labels required in reply
output: III, I, II
(III: 1440 nM, I: 2710 nM, II: 4800 nM)

* * *

# test-protocol: Clearance in rat at 2 mg/kg, iv
# Type: ADME, organism-based
# Set-up: dose 2 mg/kg, route intravenous
# test-conditions: in vivo
measured-quantity: clearance (mL/min/kg)
Only the number, expressed in mL/min/kg, is required.

input: What value of measured clearance is listed for CCC(C)COc1ccc(C(CC(=O)O)c2ccccc2)cc1 (stereo unspecified) ?
output: 13.8

* * *

# test-protocol: Cmax in rat at 10 mg/kg, po
# Type: ADME, organism-based
# Parameters: dose 10 mg/kg, route oral
# test-conditions: in vivo
measured-quantity: Cmax (ng/mL)
The reply should be a number in ng/mL, with the unit left off.

input: Which Cmax value belongs to CCC(C)COc1ccc(C(CC(=O)O)c2ccccc2)cc1 (stereo unspecified) ?
output: 4760

* * *

# target-under-test: Free fatty acid receptor 1 (Homo sapiens) (UniProt O14842)
# Sequence (O14842 whole entry): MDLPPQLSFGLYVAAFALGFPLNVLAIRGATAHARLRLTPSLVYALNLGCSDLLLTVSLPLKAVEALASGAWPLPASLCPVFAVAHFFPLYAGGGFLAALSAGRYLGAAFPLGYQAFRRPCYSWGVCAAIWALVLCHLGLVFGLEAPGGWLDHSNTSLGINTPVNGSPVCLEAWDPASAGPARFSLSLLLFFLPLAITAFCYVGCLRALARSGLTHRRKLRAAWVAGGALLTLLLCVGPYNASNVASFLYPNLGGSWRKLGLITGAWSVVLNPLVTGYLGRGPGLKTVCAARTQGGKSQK
# test-protocol: Agonist activity at human GPR40 expressed in HEK293 cells assessed as effect on calcium flux
# Type: functional, cell-based
measured-quantity: ED50 (µM)

[
  {
    "compound": "CCC(C)COc1ccc(C(CC(=O)O)c2ccccc2)cc1 (configuration not stated)",
    "ED50 (µM)": 0.3
  }
]

A = CCCCOc1ccc(C(CC(=O)O)c2ccccc2O)cc1 (configuration not stated)
B = COCCCOc1ccc(C(CC(=O)O)c2ccccc2)cc1 (configuration not stated)
input: Quick check, higher ED50 between A and B ? Bench note: the answer is the label of the chosen record.
output: B

* * *

# target-under-test: Cytochrome P450 2C9 (Homo sapiens)
# Sequence (P11712 whole entry): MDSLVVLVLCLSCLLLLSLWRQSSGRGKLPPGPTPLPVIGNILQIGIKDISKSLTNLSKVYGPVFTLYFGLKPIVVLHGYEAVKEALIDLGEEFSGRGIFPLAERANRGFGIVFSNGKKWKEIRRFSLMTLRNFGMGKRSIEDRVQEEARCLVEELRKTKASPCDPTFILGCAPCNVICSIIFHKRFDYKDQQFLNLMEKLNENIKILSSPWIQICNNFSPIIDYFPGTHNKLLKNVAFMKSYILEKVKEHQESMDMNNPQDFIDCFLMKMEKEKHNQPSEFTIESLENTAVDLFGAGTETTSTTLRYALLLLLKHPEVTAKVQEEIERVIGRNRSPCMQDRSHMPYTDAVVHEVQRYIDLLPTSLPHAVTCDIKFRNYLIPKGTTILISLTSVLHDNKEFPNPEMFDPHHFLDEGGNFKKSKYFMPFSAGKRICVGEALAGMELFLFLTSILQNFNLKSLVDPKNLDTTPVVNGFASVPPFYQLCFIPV
pIC50: −log10 of the molar value.
measured-quantity: pIC50

input: Find the recorded pIC50 belonging to CCC(C)COc1ccc(C(CC(=O)O)c2ccccc2)cc1 (stereo unspecified) and report it.
output: < 4.66

* * *

# target-under-test: Free fatty acid receptor 1 (Homo sapiens) (UniProt O14842)
# test-protocol: Agonist activity at human GPR40 expressed in HEK293 cells assessed as calcium flux response relative to linoleic acid
# Assay type: functional, cell-based
# Design: concentration or dose not given beside the values
measured-quantity: Activity (%)

Consider the reported Activity for these compounds:
[
  {
    "compound": "CCCCOc1ccc(C(CC(=O)O)c2cccc(F)c2)cc1 (stereo not drawn)",
    "measured-quantity": "Activity",
    "units-of-measure": "%",
    "endpoint-result": 81
  },
  {
    "compound": "CCC(C)COc1ccc(C(CC(=O)O)c2ccccc2)cc1 (stereo not drawn)",
    "measured-quantity": "Activity",
    "units-of-measure": "%",
    "endpoint-result": 98
  },
  {
    "compound": "CC[C@H](C)COc1ccc(C(CC(=O)O)c2ccccc2)cc1 (stereo in doubt; 22(B,S))",
    "measured-quantity": "Activity",
    "units-of-measure": "%",
    "endpoint-result": 94
  },
  {
    "compound": "CCCCOc1ccc(C(CC(=O)O)c2ccccc2O)cc1 (stereo not drawn)",
    "measured-quantity": "Activity",
    "units-of-measure": "%",
    "endpoint-result": 66
  },
  {
    "compound": "C=C(C)CCOc1ccc(C(CC(=O)O)c2ccccc2)cc1 (stereo not drawn)",
    "measured-quantity": "Activity",
    "units-of-measure": "%",
    "endpoint-result": 81
  },
  {
    "compound": "CCCCOc1ccc(C(CC(=O)O)c2cccs2)cc1 (stereo not drawn)",
    "measured-quantity": "Activity",
    "units-of-measure": "%",
    "endpoint-result": 79
  }
]

I = CCCCOc1ccc(C(CC(=O)O)c2ccccc2)cc1 (stereo not drawn)
II = CCCCOc1ccc(C(CC(=O)O)c2ccc(C(F)(F)F)cc2)cc1 (stereo not drawn)
III = CC[C@H](C)COc1ccc(C(CC(=O)O)c2ccccc2)cc1 (stereo in doubt; 22(A,S))
IV = COCCCOc1ccc(C(CC(=O)O)c2ccccc2)cc1 (stereo not drawn)
input: Please order the records by their reported Activity, lowest number first. Put the labels in the requested order and list them out.
output: III, II, IV, I
(III: 2%, II: 3%, IV: 43%, I: 72%)

I = CCCOc1ccc(C(CC(=O)O)c2ccccc2)cc1 (stereo not drawn)
II = CC[C@@H](C)COc1ccc(C(CC(=O)O)c2ccccc2)cc1 (stereo in doubt; 22(B,R))
III = CC[C@@H](C)COc1ccc(C(CC(=O)O)c2ccccc2)cc1 (stereo in doubt; 22(A,R))
IV = CCCCCOc1cccc(C(CC(=O)O)c2ccccc2)c1 (stereo not drawn)
input: Ascending by Activity, please: list the compounds accordingly. Put the labels in the requested order and list them out.
output: III, IV, I, II

1 = CCCCCCOc1ccc(C(CC(=O)O)c2ccccc2)cc1 (stereo not drawn)
2 = CCCCOc1ccc(C(CCCC(=O)O)c2ccccc2)cc1 (stereo not drawn)
input: Lab note: record which item had the higher Activity, 1 or 2 . // caller expects the label of the chosen entry
output: 1
(1: 68%, 2: 3%)

* * *

# test-protocol: AUC in rat at 10 mg/kg, po
# Assay type: ADME, organism-based
# Set-up: dose 10 mg/kg, route oral
# test-conditions: plasma
measured-quantity: AUC (ng·h/mL)
Numeric answer only, unit ng·h/mL assumed.

input: Consider the molecule CCC(C)COc1ccc(C(CC(=O)O)c2ccccc2)cc1 (stereo unspecified) and give its measured AUC.
output: 10700

* * *

# test-protocol: Half life in rat at 10 mg/kg, po
# Assay type: ADME, organism-based
# Parameters: dose 10 mg/kg, route oral
# test-conditions: in vivo
measured-quantity: half-life (h)
Express your answer in h, writing the number without its unit.

input: Any idea what its half-life is? The molecule is CCC(C)COc1ccc(C(CC(=O)O)c2ccccc2)cc1 (stereo unspecified)
output: 6.33
